Form: system (GST-PLK1 (Homo sapiens)), quantity (IC50), values below.

Hey, GST-PLK1 (Homo sapiens) data for `CC[C@@H]1C(=O)N(C)c2cnc(-c3cn(C)nc3-c3nccs3)nc2N1c1cnn(C)c1` : IC50 came out at 10 to 50 µM

Hey, GST-PLK1 (Homo sapiens) data for `CC[C@@]12COCCN1c1nc(-c3ccncc3-c3ccccc3)ncc1N(C)C2=O` : IC50 came out at 1 to 10 µM

Hey, GST-PLK1 (Homo sapiens) data for CCC1C(=O)N(C)c2cnc(-n3ccnc3)nc2N1c1cn[nH]c1 (centres unmarked) : IC50 came out at > 50 µM

Hey, GST-PLK1 (Homo sapiens) data for `CC[C@@H]1C(=O)N(C)c2cnc(-n3ccnc3-c3cccnc3)nc2N1C(C)C` : IC50 came out at 1 to 10 µM

Hey, GST-PLK1 (Homo sapiens) data for `CC[C@@H]1C(=O)N(C)c2cnc(-n3cnc(C(=O)OC)c3)nc2N1C1CCCC1` : IC50 came out at < 1 µM

Hey, GST-PLK1 (Homo sapiens) data for `CC[C@@H]1C(=O)N(C)c2cnc(-n3ccnc3)nc2N1C1CCCC1` : IC50 came out at < 1 µM

Hey, GST-PLK1 (Homo sapiens) data for CN1C(=O)C23C=CC(CC2)N3c2nc(-n3ccnc3-c3ccccc3)ncc21 (centres unmarked) : IC50 came out at > 50 µM

Hey, GST-PLK1 (Homo sapiens) data for `CC[C@@]12CCCN1c1nc(-n3ccnc3-c3ccncc3)ncc1N(C)C2=O` : IC50 came out at 10 to 50 µM

Hey, GST-PLK1 (Homo sapiens) data for `CC[C@]12COCCN1c1nc(-n3ccnc3-c3ccc(F)cc3F)ncc1N(C)C2=O` : IC50 came out at > 50 µM

Hey, GST-PLK1 (Homo sapiens) data for `CC[C@@H]1C(=O)N(C)c2cnc(-c3cncnc3-c3ccccc3)nc2N1C1CCCC1` : IC50 came out at < 1 µM

Hey, GST-PLK1 (Homo sapiens) data for `CC[C@@]12COCCN1c1nc(-n3ccnc3-c3ccc(F)cc3F)ncc1N(C)C2=O` : IC50 came out at 10 to 50 µM

Hey, GST-PLK1 (Homo sapiens) data for `CC[C@@H]1C(=O)N(C)c2cnc(-n3ccnc3-c3ccccn3)nc2N1C(C)C` : IC50 came out at 1 to 10 µM

Hey, GST-PLK1 (Homo sapiens) data for `CC[C@@]12COCCN1c1nc(-c3cn[nH]c3-c3ccc(F)cc3F)ncc1N(C)C2=O` : IC50 came out at 10 to 50 µM

Hey, GST-PLK1 (Homo sapiens) data for CCC1C(=O)N(C)c2cnc(-n3ccnc3-c3ccccc3)nc2N1N (centres unmarked) : IC50 came out at 10 to 50 µM

Hey, GST-PLK1 (Homo sapiens) data for `CC[C@@H]1C(=O)N(C)c2cnc(-n3cnc(C(=O)O)c3)nc2N1C1CCCC1` : IC50 came out at < 1 µM

Hey, GST-PLK1 (Homo sapiens) data for `CC[C@@H]1C(=O)N(C)c2cnc(-n3cc(C(=O)O)cn3)nc2N1C1CCCC1` : IC50 came out at < 1 µM

Hey, GST-PLK1 (Homo sapiens) data for `CC[C@@H]1C(=O)N(C)c2cnc(-n3ccnc3-c3ccc(S(C)(=O)=O)cc3)nc2N1C1CCCC1` : IC50 came out at 1 to 10 µM
